tested on: Trypanosoma cruzi; test: Inhibition of Trypanosoma cruzi recombinant trans-sialidase at 1 mM after 10 mins by MUNANA continuous fluorimetric assay
Measured inhibition of individual entries
Measured parameter: inhibition

compound=CO[C@@H]1O[C@H](Cn2cc(-c3ccccc3Br)nn2)[C@H](O)[C@H](O)[C@H]1O reported_measurement=29%
compound=OC[C@H]1O[C@@H](n2cc(CCc3ccccc3)nn2)[C@H](O)[C@@H](O)[C@H]1O reported_measurement=16%
compound=CO[C@@H]1O[C@H](Cn2cc(-c3cccnc3)nn2)[C@H](O)[C@H](O)[C@H]1O reported_measurement=20%
compound=CO[C@@H]1O[C@H](Cn2cc(CCCO)nn2)[C@H](O)[C@H](O)[C@H]1O reported_measurement=24%
compound=CO[C@@H]1O[C@H](Cn2cc(-c3ccccc3)nn2)[C@H](O)[C@H](O)[C@H]1O reported_measurement=14%
compound=O=C1c2ccccc2C(=O)N1Cc1cn([C@@H]2O[C@H](CO)[C@H](O)[C@H](O)[C@H]2O)nn1 reported_measurement=25%
compound=OC[C@H]1O[C@@H](n2cc(-c3ccccn3)nn2)[C@H](O)[C@@H](O)[C@H]1O reported_measurement=13%
compound=CC(=O)N[C@H]1[C@H]([C@H](O)[C@H](O)CO)OC(C(=O)O)=C[C@@H]1O reported_measurement=33%
compound=CO[C@@H]1O[C@H](Cn2cc(-c3ccccc3N)nn2)[C@H](O)[C@H](O)[C@H]1O reported_measurement=24%
compound="CCC(O)c1cn(C[C@H]2O[C@@H](OC)[C@H](O)[C@@H](O)[C@H]2O)nn1 (mixture of isomers)" reported_measurement=29%
compound=OC[C@H]1O[C@@H](n2cc(-c3ccccc3)nn2)[C@H](O)[C@@H](O)[C@H]1O reported_measurement=15%
compound=OC[C@H]1O[C@@H](n2cc(-c3cccc(C(F)(F)F)c3)nn2)[C@H](O)[C@@H](O)[C@H]1O reported_measurement=31%
compound=CO[C@@H]1O[C@H](Cn2cc(CO)nn2)[C@H](O)[C@H](O)[C@H]1O reported_measurement=28%
compound=CO[C@@H]1O[C@H](Cn2cc(-c3ccccn3)nn2)[C@H](O)[C@H](O)[C@H]1O reported_measurement=14%
compound=CO[C@@H]1O[C@H](Cn2cc(CCCCO)nn2)[C@H](O)[C@H](O)[C@H]1O reported_measurement=27%
compound=OCCCCc1cn([C@@H]2O[C@H](CO)[C@H](O)[C@H](O)[C@H]2O)nn1 reported_measurement=26%
compound=CO[C@@H]1O[C@H](Cn2cc(-c3cccc(C(F)(F)F)c3)nn2)[C@H](O)[C@H](O)[C@H]1O reported_measurement=3%
